Cited source for all entries: the EternaBench riboswitch data

- Tested on: MS2 coat protein
- Method: apparent Kd, MS2 coat protein; higher = weaker binding; RNA-MaP array; tryptophan 2.4 mM where present
- Experimental Conditions: designed as: ON switch for tryptophan; no ligand
The threshold is inclusive: apparent Kd of exactly 50 nM counts as YES; values below receive NO.

Sequence String | Assigned Class
GGUUACUCUACGGCCGCCACUGAACAUGAGGAUCACCCAUGUAAUGUUCAGUAGUCUUUAGACAACAGGACCGGGUAGUGUAACC | YES
AAUAUAAUAGACUCGUUUUAGUAUUUGGAACGAGGACCGGUACGGCCGCCACUCGUGAUUUACAUGAGGAUCACCCAUGUUAGCA | NO
CGAGUAAGAACAAUCGAAUAACGGUUUUCGCGAGGACCGGUACGGCCGCCACUCGUGUGAUAUCACACAUGAGGAUCACCCAUGU | YES
GGAAACCCGACGGCCGCCACUAACGGUCUCAAAAGAGGUUGAACACAUGAGGAUCACCCAUGUAAUAGGACCGGGUCGUGUGAAA | NO
UGCAUUAUACAUGGAUCACCCAUGUAGACACGAGGACCGGUACGGCCGCCACUCGGAAGAGGGAACAUGAGGAUCACCCAUGUGA | YES
GGGAGGUAGGCGGCCGCCACUGAUUUUCAUAUAUAUAUAACAUGAGGAUCACCCAUGUAGAUAUGCAGGACCGGGCCUGUUUUUU | NO
GCAUCCUAGUCGGCCGCCACUGCAUCACCAGUGGCAGGUGAUCAACAUGAGGAUCACCCAUGUAGCAGGACCGGGACUAGGAUGC | YES
GUCCUCAUGACGGCCGCCACUAAACAUGAGGAUCACCCAUGUAAUGAUCCAUUAAAUGAUAAUAGUAGGACCGGGUCAAAAUAAA | YES
UCGGAUGCGGCGGCCGCCACUCGCGGAUAACGAUAGCUUAACAUGAGGAUCACCCAUGUGUCAUGGAGGACCGGGCCCAUACCGU | NO
AUUAAUAAUAUGUAGACGGCGGAGACGAGACGAGGACCGGUACGGCCGCCACUCGUGUUAGUUAACAUGAGGAUCACCCAUGUUA | NO
AUAUAUACAUGAGGAUCACCCAUGUUAUUUCGAGGACCGGUACGGCCGCCACUCGAUAGAGUGGAAGUAACAUUUGUUAGAUGAU | NO
UGUCAGCGAAAGUUGACAUGUCUUACCGGUCGAGGACCGGUACGGCCGCCACUCGAUCACUCGCACAUGAGGAUCACCCAUGUCG | NO
CUACAUUUGUAGAAACCGGUCAACAAUAAUCGAGGACCGGUACGGCCGCCACUCGAUGUGUUAUACACAUGAGGAUCACCCAUGU | NO
GCUACAUGAGGAUCACCCAUGUAUGCGAGCCGAGGACCGGUACGGCCGCCACUCGCUUAACAUGAGGAUCACCCAUGUUUCUCGG | YES
UGUCAUGGAAACAUGACAGGUCUUACCGGUCGAGGACCGGUACGGCCGCCACUCGAUUGGUGGCACAUGAGGAUCACCCAUGUUA | NO
AAUAAUAUCCUCAUGUGAGUCGUACCGUAACGAGGACCGGUACGGCCGCCACUCGAACAUGAGGAUCACCCAUGUAGGUACGACA | YES
GGUUACUCUACGGCCGCCACUGUCAUGUAAAGAUACCUGUACAUGACAUGAGGAUCACCCAUGUGCAGGACCGGGUAGUGUAACC | YES
CGCCACUCGAGUGAUCCUCACGAGUGGCUACGAGGACCGGUACGGCCGCCACUCGAAUUAACAUGAGGAUCACCCAUGUAAUCUA | YES
UGUCAGCGAAAGUUGACAUGUCUUACCGGUCGAGGACCGGUACGGCCGCCACUCGAUCACUCGCACAUGAGGAUCACCCAUGUUG | NO
UGUAUUACGAAAGUAGUACAUCGUGUUCGACGAGGACCGGUACGGCCGCCACUCGGACAUGAGGAUCACCCAUGUAGCGAAAGCU | YES
UGUCAGCGAAAGUUGACAUGUCUUGCUGGUCGAGGACCGGUACGGCCGCCACUCGAUCUCUCGCACAUGAGGAUCACCCAUGUUG | NO
AGCCACUCGAGUGAUCCUCACGAGUGGCUACGAGGACCGGUACGGCCGCCACUCGAAUUAACAUGAGGAUCACCCAUGUAAUCAU | NO
AACAUGAGGAUCACCCAUGUACAUUUCGAUCGAGGACCGGUACGGCCGCCACUCGAAAACAUGAGGAUCACCCAUGUUCAACAGG | YES
AACAUACAAUAUUAGGUGGAUAUAAGGCGGCGAGGACCGGUACGGCCGCCACUCGCGUACAUGAGGAUCACCCAUGUCUGAAACU | NO
GAGUCCGCGGCGGCCGCCACUCGCGAUAUAACAUGAUAUCAGGACAUGAGGAUCACCCAUGUCACGAGGACCGGGCCGAUCCUCA | NO
AUACAUGAGGAUCACCCAUGUGAUGGCCGGCGAGGACCGGUACGGCCGCCACUCGUGAUCCGUCCUGAAAGCAAAGCUCUCAACA | NO

* * *

- System: MS2 coat protein
- Method: apparent Kd, MS2 coat protein; higher = weaker binding; RNA-MaP array
- Experimental Conditions: ligand present: flavin mononucleotide; designed as: OFF switch for flavin mononucleotide
Returns 1 if the recorded apparent Kd is greater than or equal to 10 nM, and -1 otherwise.

Sequence String | Assay Target | Assigned Class
UAGAUAUGAGGAUAUACAUGAGGAUCACCCAUGUGGUUAUCAAACGACAUGACAUUUAGUAGAAGGCAAACAUC | MS2 coat protein | 1
CCCGGUGAUGUCAAACAUGAGGAUCACCCAUGUCUUCACCAUAGAAGGCGCUUUAUUCUAGCUAGCGAGGAUAUAUGGUUUCAG | MS2 coat protein | 1
GGUGAGUCAGGAUAUUGUGCAUUUGAGACCCACACGGGACACAAGAAGGGACAUGAGGAUCACCCAUGUGCUCA | MS2 coat protein | 1
UCCUACAAAGUCAGGAUAUUCGCACAGUCACGAGGGAAGAAGGGACAUGAGGAUCACCCAUGUAUUUACGCGUA | MS2 coat protein | 1
CACCUCCAAGGAUAUACAUGAGGAUCACCCAUGUGGAUAACCUGGGCGCGCCGAGCAAGUAGAAGGUGGAUUGG | MS2 coat protein | 1
UAAGAAUCAGGAUAUACAGAAAGAUCAACAAAGAGCCAUAAACAUGAGGAUCACCCAUGUAGAAGGGAACAAAU | MS2 coat protein | -1
UCAGGUCCGAAGAAGGCGAAGCAACAUUACUAUCGAGGAUAUUCUACAUGAGGAUCACCCAUGUCACCAUCGAUGACAGAGAAU | MS2 coat protein | -1
CUAACACAUGAGGAUCACCCAUGUUAGGAUAUCAGCUGCAGCGCUCGACUGCAAUUUAUGAGAAGGAACUGUGG | MS2 coat protein | 1
CAUUUCUUCACAGGAUAUGCCGUACAUGAGGAUCACCCAUGUGGGUGGGCGUAGCACUGUAGUGCGCAGAAGGGUGGAUCCGAC | MS2 coat protein | 1
GGCGUAUCAGGAUAUGCGUUUUGAGACAUGAGGAUCACCCAUGUCCUUAGCUCAGUUAAAGCAGAAGGGAUUAUUA | MS2 coat protein | 1
GCAAUAACAGCAGGAUAUCGUCUCACAUGAGGAUCACCCAUGUUACUAAGUGGCUACUAGGAUUACGAGAAGGGCUGUCCACGC | MS2 coat protein | -1
UUAUUGGUAGGAUAUACAUGAGGAUCACCCAUGUGUCACGCAAAUUAGUAUGUCAAAUGUAGAAGGACCAAAUA | MS2 coat protein | 1
GACGCUGCAGGAUAUACUACGAGACUCACCCACAUUAUAUGACAUGAGGAUCACCCAUGUAGAAGGGCAAUGUG | MS2 coat protein | 1
AUGAGUAUUAAAGGAUAUCACUUAAUUGAUUGAUGAGAAGGUUAGAUGGCAUACAUGAGGAUCACCCAUGUGGUUUCAUGCGGU | MS2 coat protein | 1
CGAAAACAUGAGGAUCACCCAUGUUAGGAUAUGAGGAUGGUAUAGUAUACGGUGUAGAUCAGAAGGAACGGUGG | MS2 coat protein | 1
GCAGGUAAGUAGAAGGGUCGCACCAUACUGACGACAGGAUAUACUGUCCGAAACUCGUCAUUACAUGAGGAUCACCCAUGUUUA | MS2 coat protein | 1
UCAGUGUCAGGAUAUUCUAACGAGGGUAGUGCGCCCUUUGUGAAGAAGGGACAUGAGGAUCACCCAUGUACUUG | MS2 coat protein | 1
UGGAAGUAAGGAUAUCCGCGCGCGGGUUUUGCGCACGCACUGGAGAAGGUACAUGAGGAUCACCCAUGUUCGUC | MS2 coat protein | -1
AUUUUAAACAAGAAGGGCUUACGCAAGCUGAGAGCAGGAUAUUGACAUGAGGAUCACCCAUGUAUUAGACCAUAAGAUCCCAUU | MS2 coat protein | 1
GCCGUUCGAGAGAAGGUUGUACGCGCCACGCGCACAUGAGGAUCACCCAUGUCCUCCAAACUCACAAAGGAUAUCUUAAGAACA | MS2 coat protein | 1
AUGCCUCCACUAGGAUAUUACAUCUACAUUUCCACUUUCAAACAGACAUGAGGAUCACCCAUGUGUAAGAAGGAGUGCCUAGAG | MS2 coat protein | -1
GGAAUCUUUCGAGGAUAUGUCCCACAAUAGUGCCUACCGGGUAACAUGAGGAUCACCCAUGUGAGACAGAAGGCGAGGUUUGGC | MS2 coat protein | 1
UCACGGUCAGGAUAUCCUACCUUAGGGCAACCAUGGUAAACGGAGAAGGGACAUGAGGAUCACCCAUGUACAGC | MS2 coat protein | 1
GGCUCCGUAGGAUAUCGUAUUAGCGACAUGAGGAUCACCCAUGUUCAUUUGUCCUCAAUACGAGAAGGACGAACUC | MS2 coat protein | 1
GCAAGAGAGCAGAAGGUUGAGGGCGUUCCCGUUUACAUGAGGAUCACCCAUGUUGCUAACAUGUCAAAGGAUAUGCCUAACGCU | MS2 coat protein | 1
UGAGACAGAGGAUAUACAAAAGGGAAACGAGCACAGAGGAAACAUGAGGAUCACCCAUGUAGAAGGCUGAACAG | MS2 coat protein | 1
UUUCUCAAUGUCAGGAUAUAGAUUUGACAUCCUCACUAGAAGGGACAUGAGGAUCACCCAUGUGUCAAUGCGGC | MS2 coat protein | 1
AUAGCAAAAGUGAGGAUAUUCGACAUAGAACGCAUGAAGAAGGCACAUGAGGAUCACCCAUGUUCUCGUUAGUA | MS2 coat protein | 1
GUUAGUUGUGAGGAUAUUCAGAGAUCUCGAUCAGAAGAAGGCACUACAUGAGGAUCACCCAUGUAGAUUCUUAU | MS2 coat protein | -1
